Measured values drawn from ChEMBL document CHEMBL4765377 for this set.

Assay: Cytotoxicity against mouse NCTC clone 929 cells assessed as viability at 3.125 ug/ml after 24 hrs by CCK8 assay relative to control
Type: cell-based
Details: at 3.125 µg/mL, read-out: Activity
assayMetric: viability at 24 h, 3.125 ug/ml (%)
Response body: numeric value in %, unit text excluded.

Could you tell me which viability at 24 h, 3.125 ug/ml is on file for CC(C)=CCOc1ccc(/C=C/C(=O)c2ccc(OCC=C(C)C)cc2OCC(=O)N[C@@H](CCCNC(=N)N)C(=O)N[C@@H](CCCNC(=N)N)C(N)=O)cc1 ?
82

* * *

Assay: Cytotoxicity against human MDA-MB-231 cells assessed as viability at 12.5 ug/ml after 24 hrs by CCK8 assay relative to control
Assay type: cell-based
Settings: at 12.5 µg/mL, read-out: Activity
assayMetric: viability at 24 h, 12.5 ug/ml (%)
Write down the numeric answer in % and omit the unit.

# viability at 24 h, 12.5 ug/ml lookup, item CC(C)=CCOc1ccc(/C=C/C(=O)c2ccc(OCC=C(C)C)cc2OCC(=O)N[C@@H](CCCNC(=N)N)C(=O)N[C@@H](CCCNC(=N)N)C(N)=O)cc1
84.8

* * *

Assay: Cytotoxicity against human MDA-MB-231 cells assessed as viability at 3.125 ug/ml after 24 hrs by CCK8 assay relative to control
Assay type: cell-based
Conditions: at 3.125 µg/mL, read-out: Activity
assayMetric: viability at 24 h, 3.125 ug/ml

Which value of viability at 24 h, 3.125 ug/ml has been reported for CC(C)=CCOc1ccc(/C=C/C(=O)c2ccc(OCC=C(C)C)cc2OCC(=O)N[C@@H](CCCNC(=N)N)C(=O)N[C@@H](CCCNC(=N)N)C(N)=O)cc1 in the records?
95.6%

* * *

Assay: Cytotoxicity against mouse corneal fibroblast cells assessed as viability at 12.5 ug/ml after 24 hrs by CCK8 assay relative to control
Assay type: cell-based
Conditions: at 12.5 µg/mL, read-out: Activity
assayMetric: viability at 24 h, 12.5 ug/ml (%)
Just the number in %, nothing appended.

For the compound shown here, CC(C)=CCOc1ccc(/C=C/C(=O)c2ccc(OCC=C(C)C)cc2OCC(=O)N[C@@H](CCCNC(=N)N)C(=O)N[C@@H](CCCNC(=N)N)C(N)=O)cc1 , give the reported viability at 24 h, 12.5 ug/ml.
64.2

* * *

Assay: Hemolytic activity in rabbit RBC after 60 mins
Type: ADME, cell-based, Oryctolagus cuniculus, Erythrocyte
Details: rabbit red blood cells (erythrocytes)
Decide using HC50 at 1 h alone. Strictly below 80 µg/mL: T. Equal to or above 80 µg/mL: F.

Is 80 µg/mL strictly greater than the molecule's reported HC50 at 1 h? molecule: CC(C)=CCOc1ccc(/C=C/C(=O)c2ccc(OCC=C(C)C)cc2OCC(=O)NCCCN2CCN(C)CC2)cc1
T

Given COC(=O)[C@H](CCCNC(=N)N)NC(=O)[C@H](CCCNC(=N)N)NC(=O)COc1cc(OCC=C(C)C)ccc1C(=O)/C=C/c1ccc(OCC=C(C)C)cc1 , is recorded HC50 at 1 h strictly lower than 80 µg/mL?
F

For CC(C)=CCOc1ccc(/C=C/C(=O)c2ccc(OCC=C(C)C)cc2OCC(=O)N[C@@H](CCCNC(=N)N)C(=O)NCCCN(C)C)cc1 , is the recorded HC50 at 1 h below the cut-off of 80 µg/mL?
F

Below 80 µg/mL on HC50 at 1 h? Entry CCCNC(=O)COc1cc(OCC=C(C)C)ccc1C(=O)/C=C/c1ccc(OCC=C(C)C)cc1
F

Record CC(C)=CCOc1ccc(/C=C/C(=O)c2ccc(OCC=C(C)C)cc2OCC(=O)NCCCN2CCCC2)cc1 : is its HC50 at 1 h strictly below 80 µg/mL?
T

Input CC(C)=CCOc1ccc(/C=C/C(=O)c2ccc(OCC=C(C)C)cc2OCC(=O)NCCCNC(=N)N)cc1 ; condition: HC50 at 1 h strictly below 80 µg/mL. Does it hold?
T

Confirm or reject: HC50 at 1 h of CCCCN(CCCC)CCCNC(=O)COc1cc(OCC=C(C)C)ccc1C(=O)/C=C/c1ccc(OCC=C(C)C)cc1 lies strictly below 80 µg/mL
F

I wonder whether CC(C)=CCOc1ccc(/C=C/C(=O)c2ccc(OCC=C(C)C)cc2OCC(=O)NCCCN)cc1 has HC50 at 1 h below 80 µg/mL. Can you tell?
T

Determine whether this molecule shows HC50 at 1 h lower than 80 µg/mL (ties excluded): CC(C)=CCOc1ccc(/C=C/C(=O)c2ccc(OCC=C(C)C)cc2OCC(=O)N[C@@H](CCCNC(=N)N)C(=O)NCCCN)cc1
F

Does the reported HC50 at 1 h of the following molecule sit strictly below 80 µg/mL? CCN(CC)CCCNC(=O)COc1cc(OCC=C(C)C)ccc1C(=O)/C=C/c1ccc(OCC=C(C)C)cc1
T
